TARGET_UNDER_TEST: T1, human PD-L1 (soluble protein of the kinetic measurements) (human, UniProt Q9NZQ7 19-238, limits assumed)
T1 construct: kept apart from the His-tag protein of the ELISA; also called hPD-L1
ASSAY_NOTES: BLI (Octet), antibody fixed on biosensor, PD-L1 in solution
The following binders are listed with their measured Kd values.
Only the number, expressed in pM, is required.

binder="ME4.A2 anti-PD-L1 antibody (IgG form) (antibody, V domains shown) VH: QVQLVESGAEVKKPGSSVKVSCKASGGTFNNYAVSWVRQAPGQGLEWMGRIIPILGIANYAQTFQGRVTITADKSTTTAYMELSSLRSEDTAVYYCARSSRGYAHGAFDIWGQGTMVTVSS VL: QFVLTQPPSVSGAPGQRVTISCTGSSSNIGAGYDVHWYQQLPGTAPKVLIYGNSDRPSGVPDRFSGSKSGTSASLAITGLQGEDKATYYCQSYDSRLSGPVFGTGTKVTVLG" value_kind=Kd readout_number=58.6
binder="ME4.B10 anti-PD-L1 antibody (IgG form) (antibody, V domains shown) VH: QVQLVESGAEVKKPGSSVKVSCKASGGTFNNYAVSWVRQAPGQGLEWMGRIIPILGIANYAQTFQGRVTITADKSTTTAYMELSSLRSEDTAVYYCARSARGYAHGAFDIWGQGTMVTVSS VL: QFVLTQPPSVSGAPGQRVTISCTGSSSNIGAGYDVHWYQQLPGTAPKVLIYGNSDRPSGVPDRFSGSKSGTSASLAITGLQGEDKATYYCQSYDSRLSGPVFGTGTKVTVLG" value_kind=Kd readout_number=167

Moving on to the next binder.
Reported Kd, binder ME4.B12 anti-PD-L1 antibody (IgG form) (antibody, V domains shown) VH: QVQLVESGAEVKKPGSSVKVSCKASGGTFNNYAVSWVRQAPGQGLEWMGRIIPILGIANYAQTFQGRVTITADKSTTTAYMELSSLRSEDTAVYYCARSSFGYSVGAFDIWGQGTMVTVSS VL: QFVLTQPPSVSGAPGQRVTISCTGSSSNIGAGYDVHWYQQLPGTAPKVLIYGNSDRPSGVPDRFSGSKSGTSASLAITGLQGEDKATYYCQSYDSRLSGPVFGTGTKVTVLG : ____ 19.4
